Ref: patent US20260242735A1

Each entry below carries its reported Mean % WT Binding.
# system: human CD33 R144A (human, UniProt P20138 18-364)
# Sequence (P20138 18-364 R144A limits assumed): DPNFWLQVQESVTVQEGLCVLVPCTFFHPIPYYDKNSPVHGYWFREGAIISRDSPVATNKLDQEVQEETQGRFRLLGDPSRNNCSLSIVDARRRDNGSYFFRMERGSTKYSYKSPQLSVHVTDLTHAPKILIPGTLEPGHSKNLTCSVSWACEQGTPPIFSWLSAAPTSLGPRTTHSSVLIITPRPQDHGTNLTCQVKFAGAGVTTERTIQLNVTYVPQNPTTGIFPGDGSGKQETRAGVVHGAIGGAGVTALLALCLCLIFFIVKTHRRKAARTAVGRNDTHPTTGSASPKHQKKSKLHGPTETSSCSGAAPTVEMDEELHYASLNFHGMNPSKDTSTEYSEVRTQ
# run.description: flow cytometry on HEK293-T, alanine scan
Reply with just the number (in % WT binding).

Incoming: Requested field: Mean % WT Binding. Item: Refmab #3 (antibody, V domains shown, The alanine scan used IgG or Fab) VH: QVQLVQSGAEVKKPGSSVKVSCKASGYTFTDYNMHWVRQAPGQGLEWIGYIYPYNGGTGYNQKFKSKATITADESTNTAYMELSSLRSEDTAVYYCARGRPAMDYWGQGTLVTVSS VL: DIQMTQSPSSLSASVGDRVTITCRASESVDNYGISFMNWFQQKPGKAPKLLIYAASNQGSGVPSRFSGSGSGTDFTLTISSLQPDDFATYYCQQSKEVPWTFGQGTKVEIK
Outgoing: 112
